System: Caco-2 cells;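 also: Caco-2 monolayers used 21 days after seeding in HBSS-HEPES buffer with 1% DMSO, donor and acceptor levels quantified by LC-MS/MS, TEER checked before and after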
measurement.description: in vitro
Assay type: in vitro ADME, human
condition.set: Caco-2
Starred links: 1 amine or outer side, 2 acyl side, 3 side chain; linkers in the order of their positions; H or OH if unused. Non-standard residues stand in square brackets, D forms with d. Residues, ends and D or L forms follow the SMILES beside them. X1 = CC(C)C[C@H](NC(=S)[C@H](Cc1ccc(O)cc1)N[*:1])C(=O)[*:2]; X2 = CC(C)C[C@H](NC(=S)[C@@H](CC(C)C)N[*:1])C(=O)[*:2]; X3 = CC(C)C[C@H](N[*:1])C(=S)N[C@H](CC(C)C)C(=O)[*:2]; X4 = CC(C)C[C@H](N[*:1])C(=S)N1CCC[C@@H]1C(=O)[*:2]
Readings of Papp A-B avg (second block) for the listed molecules
Answer format: numeric, cm/s implied, no suffix.

Reported Papp A-B avg (second block) ( CC(C)C[C@@H]1NC(=O)[C@@H](CC(C)C)NC(=O)[C@H](CC(C)C)NC(=S)[C@H](Cc2ccc(O)cc2)NC(=O)[C@H]2CCCN2C(=O)[C@H](CC(C)C)NC1=O [10e] (cyclo(LL[dP][X1][dL])) ) = 2.01e-06

Reported Papp A-B avg (second block) ( CC(C)C[C@@H]1NC(=O)[C@H](Cc2ccc(O)cc2)NC(=O)[C@H]2CCCN2C(=S)[C@H](CC(C)C)NC(=O)[C@H](CC(C)C)NC(=O)[C@@H](CC(C)C)NC1=O [10c] (cyclo(L[dL]L[X4]Y)) ) = 0.00

Reported Papp A-B avg (second block) ( CC(C)C[C@@H]1NC(=O)[C@@H](CC(C)C)NC(=S)[C@H](CC(C)C)NC(=O)[C@H](Cc2ccc(O)cc2)NC(=O)[C@H]2CCCN2C(=O)[C@H](CC(C)C)NC1=O [10f] (cyclo(LL[dP]Y[X3])) ) = 3.01e-06

Reported Papp A-B avg (second block) ( CC(C)C[C@@H]1NC(=O)[C@H](Cc2ccc(O)cc2)NC(=O)[C@H]2CCCN2C(=O)[C@H](CC(C)C)NC(=O)[C@H](CC(C)C)NC(=S)[C@@H](CC(C)C)NC1=O [10a] (cyclo(L[dP]YL[X2])) ) = 3.25e-06

Reported Papp A-B avg (second block) ( CC(C)NCC(O)COc1cccc2ccccc12 (stereo not drawn) [Propranolol, reference compound] ) = 1.66e-05

Reported Papp A-B avg (second block) ( C[C@H]1O[C@@H](O[C@H]2[C@@H](O)C[C@H](O[C@H]3[C@@H](O)C[C@H](O[C@H]4CC[C@@]5(C)[C@H](CC[C@@H]6[C@@H]5C[C@@H](O)[C@]5(C)[C@@H](C7=CC(=O)OC7)CC[C@]65O)C4)O[C@@H]3C)O[C@@H]2C)C[C@H](O)[C@@H]1O [Digoxin, reference compound] ) = 7.2e-07
